test-system: c-Kit (Homo sapiens (Human))
Sequence (P10721 26-976): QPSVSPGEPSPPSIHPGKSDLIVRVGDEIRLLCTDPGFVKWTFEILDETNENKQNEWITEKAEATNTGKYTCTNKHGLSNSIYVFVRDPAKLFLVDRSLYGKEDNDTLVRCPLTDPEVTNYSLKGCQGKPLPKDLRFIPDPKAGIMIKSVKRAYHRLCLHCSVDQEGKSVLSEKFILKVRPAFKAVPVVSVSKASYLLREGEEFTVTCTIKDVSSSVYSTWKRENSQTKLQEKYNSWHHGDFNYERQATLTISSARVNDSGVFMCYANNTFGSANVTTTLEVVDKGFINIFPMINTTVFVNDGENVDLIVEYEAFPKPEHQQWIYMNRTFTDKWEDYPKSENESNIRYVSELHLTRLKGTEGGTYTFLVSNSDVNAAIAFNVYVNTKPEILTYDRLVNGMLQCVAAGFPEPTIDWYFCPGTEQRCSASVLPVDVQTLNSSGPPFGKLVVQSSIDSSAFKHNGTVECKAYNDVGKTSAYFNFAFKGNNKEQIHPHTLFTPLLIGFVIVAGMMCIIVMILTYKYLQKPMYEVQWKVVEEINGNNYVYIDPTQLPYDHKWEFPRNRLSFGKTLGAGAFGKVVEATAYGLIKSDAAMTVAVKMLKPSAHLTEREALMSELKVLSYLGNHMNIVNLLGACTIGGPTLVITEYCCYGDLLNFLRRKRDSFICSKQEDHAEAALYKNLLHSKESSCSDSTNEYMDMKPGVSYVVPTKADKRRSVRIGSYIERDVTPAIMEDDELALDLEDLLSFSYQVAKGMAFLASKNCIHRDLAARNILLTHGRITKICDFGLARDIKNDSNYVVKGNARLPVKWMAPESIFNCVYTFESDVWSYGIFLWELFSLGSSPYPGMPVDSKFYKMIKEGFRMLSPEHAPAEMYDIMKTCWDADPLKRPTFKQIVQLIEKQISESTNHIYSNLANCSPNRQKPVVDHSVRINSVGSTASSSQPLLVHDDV
measurement-description: Inhibition of c-Kit kinase activity (HTRF KinEASE-TK)
Format: biochemical
test-parameters: biochemical, HTRF KinEASE-TK
Protocol: Inhibition of c-Kit, PDGFRα, PDGFRβ, CSFIR and FLT3 Kinase Activity Compounds were evaluated to determine the potency with which they inhibit the kinase activity of the following panel of tyrosine kinases: c-Kit (SignalChem, Product #: K06-11BG), PDGFRα (SignalChem, Product #: P12-18G), PDGFRβ (SignalChem, Product #: P13-11G), CSFIR (SignalChem, Product #: C74-11G) and FLT3 (Invitrogen, Product #: PR4666C). […]
result-type: IC50

Look over these answered cases.
> print(dat)
                            compound.string  observed.result
1  Cc1ncc(C(=O)Nc2cc(C(=O)NCCCN3CCOCC3)c(F)cc2C)s1   100 to 1000 nM
2  Cc1ncc(C(=O)Nc2cc(C(=O)Nc3cnc(OC4CC4)cn3)c(F)cc2C)s1         < 100 nM
3  COCc1ccc(NC(=O)c2cc(NC(=O)c3cnc(N)s3)c(F)cc2F)nc1   100 to 1000 nM

State, for c-Kit (Homo sapiens (Human)), measured IC50 of the compound listed here: `Cc1cc(F)c(C(=O)Nc2ccn(CC3CC3)n2)cc1NC(=O)c1cnc(N)s1`
< 100 nM

----------
test-system: CSF1R (Homo sapiens (Human), UniProt P07333)
Sequence (P07333 20-972): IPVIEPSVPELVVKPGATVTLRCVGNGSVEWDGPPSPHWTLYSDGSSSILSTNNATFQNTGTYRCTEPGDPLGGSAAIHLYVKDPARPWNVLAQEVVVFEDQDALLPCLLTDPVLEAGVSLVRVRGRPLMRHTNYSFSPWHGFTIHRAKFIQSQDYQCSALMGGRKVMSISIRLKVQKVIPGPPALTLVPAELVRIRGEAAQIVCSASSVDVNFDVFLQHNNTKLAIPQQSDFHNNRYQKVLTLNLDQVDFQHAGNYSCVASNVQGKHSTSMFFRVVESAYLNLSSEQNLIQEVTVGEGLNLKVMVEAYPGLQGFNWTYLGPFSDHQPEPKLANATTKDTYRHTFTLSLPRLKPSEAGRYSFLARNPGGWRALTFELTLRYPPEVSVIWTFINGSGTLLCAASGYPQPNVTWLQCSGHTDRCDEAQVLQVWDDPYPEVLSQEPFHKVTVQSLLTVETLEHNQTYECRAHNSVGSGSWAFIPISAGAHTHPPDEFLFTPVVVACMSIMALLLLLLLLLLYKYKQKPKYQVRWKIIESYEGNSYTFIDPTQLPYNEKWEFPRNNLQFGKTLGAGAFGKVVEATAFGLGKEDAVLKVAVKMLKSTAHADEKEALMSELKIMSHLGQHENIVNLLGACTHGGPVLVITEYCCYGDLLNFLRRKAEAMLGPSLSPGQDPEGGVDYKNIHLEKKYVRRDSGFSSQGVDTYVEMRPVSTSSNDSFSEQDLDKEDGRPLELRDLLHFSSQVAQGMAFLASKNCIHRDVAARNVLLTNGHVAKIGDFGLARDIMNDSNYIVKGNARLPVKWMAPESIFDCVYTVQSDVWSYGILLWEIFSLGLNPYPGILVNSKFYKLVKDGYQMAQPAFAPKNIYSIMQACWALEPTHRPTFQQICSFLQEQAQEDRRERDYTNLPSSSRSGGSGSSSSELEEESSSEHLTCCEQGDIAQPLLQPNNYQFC
measurement-description: Inhibition of CSF1R kinase activity (HTRF KinEASE-TK)
test-parameters: biochemical, HTRF KinEASE-TK
Collected IC50 values appear next to each entry.

// solved cases for IC50 follow
> print(dat)
                                   compound  result.type  observed.result
1  Cc1cc(F)c(C(=O)Nc2ccn(CC(C)C)n2)cc1NC(=O)c1cnc(N)s1         IC50        > 1000 nM
2  COc1ccnc(NC(=O)c2cc(NC(=O)c3cnc(N)s3)c(C)cc2F)c1         IC50   100 to 1000 nM
3  Cc1ncc(C(=O)Nc2cc(C(=O)Nc3ccc(CC(F)(F)F)cn3)c(F)cc2F)s1         IC50        > 1000 nM

Kindly review the next compound as well.
Dear colleague, please send me the reported IC50 for `Cc1cc(F)c(C(=O)Nc2nnc(C3CC3)s2)cc1NC(=O)c1cnc(N)s1` when you can.
< 100 nM

----------
Reported IC50 is given for each of the following compounds.
test-system: PDGFRβ (Homo sapiens (Human))
Sequence (P09619 33-1106): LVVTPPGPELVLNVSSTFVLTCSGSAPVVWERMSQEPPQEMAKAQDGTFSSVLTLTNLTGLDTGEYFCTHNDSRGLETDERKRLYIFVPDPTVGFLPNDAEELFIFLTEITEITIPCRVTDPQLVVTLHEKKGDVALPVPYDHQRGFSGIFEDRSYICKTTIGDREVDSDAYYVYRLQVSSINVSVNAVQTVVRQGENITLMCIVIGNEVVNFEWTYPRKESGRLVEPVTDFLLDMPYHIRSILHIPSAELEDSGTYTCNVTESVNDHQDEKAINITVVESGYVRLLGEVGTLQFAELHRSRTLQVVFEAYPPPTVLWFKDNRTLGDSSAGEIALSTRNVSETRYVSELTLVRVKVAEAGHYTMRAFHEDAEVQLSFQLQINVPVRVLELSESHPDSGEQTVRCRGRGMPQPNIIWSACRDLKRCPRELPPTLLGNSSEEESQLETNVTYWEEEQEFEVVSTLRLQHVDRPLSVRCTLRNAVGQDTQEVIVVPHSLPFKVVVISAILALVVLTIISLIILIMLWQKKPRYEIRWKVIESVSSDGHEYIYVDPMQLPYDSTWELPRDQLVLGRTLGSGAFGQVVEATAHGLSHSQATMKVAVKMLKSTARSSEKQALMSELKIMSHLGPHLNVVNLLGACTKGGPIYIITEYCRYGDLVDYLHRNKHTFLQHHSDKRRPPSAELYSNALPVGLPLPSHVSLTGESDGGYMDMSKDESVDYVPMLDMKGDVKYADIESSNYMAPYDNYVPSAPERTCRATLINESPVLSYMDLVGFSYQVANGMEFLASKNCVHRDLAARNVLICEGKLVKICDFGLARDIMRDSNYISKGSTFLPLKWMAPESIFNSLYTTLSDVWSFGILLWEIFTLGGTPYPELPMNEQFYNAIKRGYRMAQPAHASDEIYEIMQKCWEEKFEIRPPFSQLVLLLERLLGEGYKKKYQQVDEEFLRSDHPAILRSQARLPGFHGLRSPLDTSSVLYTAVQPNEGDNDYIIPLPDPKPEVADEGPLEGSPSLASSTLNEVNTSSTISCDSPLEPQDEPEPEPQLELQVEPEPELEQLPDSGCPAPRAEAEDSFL
measurement-description: Inhibition of PDGFRβ kinase activity (HTRF KinEASE-TK)
test-parameters: biochemical, HTRF KinEASE-TK

Determine its reported IC50: `Cc1ncc(C(=O)Nc2cc(C(=O)Nc3ccn(C(C)C)n3)c(F)cc2C)s1`
> 1000 nM

----------
Tested on: beagle dog hepatocytes
measurement-description: Bioactivation assessment in dog hepatocytes
Assay type: in vitro ADME
test-parameters: 5 μM, 4 hours
Marks after values point to notes of the source that are not given here.
result-type: Percent of total metabolism via bioactivation, Dog hepatocytes

Worked cases, Percent of total metabolism via bioactivation, Dog hepatocytes given:
> print(dat)
                            compound.string             test.system  observed.result
1  Cc1ncc(C(=O)Nc2cc(C(=O)Nc3ccc(CC(F)(F)F)cn3)c(F)cc2C)s1  beagle dog hepatocytes            <1%^b
2  Cc1ncc(C(=O)Nc2cc(C(=O)Nc3cnc(OCC(C)(F)F)cn3)c(F)cc2C)s1  beagle dog hepatocytes            <1%^a
3  Cc1ncc(C(=O)Nc2cc(C(=O)Nc3ccc(CC4CC4)cn3)c(F)cc2C)s1  beagle dog hepatocytes               4%

Please examine the following record next.
For the compound `Cc1ncc(C(=O)Nc2cc(C(=O)Nc3ccc(OC4CC4)cn3)c(F)cc2C)s1` , give its reported Percent of total metabolism via bioactivation, Dog hepatocytes.
3-4%^a
